# Assay system: Human Recombinant Matriptase 2 (Homo sapiens)
# Construct: made in house
# Assay overview: Matriptase 2 inhibition, fluorescence based assay (Method I)
# Format: biochemical
# Experimental conditions: Table A; Ki of Matriptase-2; read-out: Mat-2 Ki
pKi: −log10 of the molar value.
Outcome measure: pKi

> print(dat)
                                   molecule  recorded.measurement
1  CC(C)N1CCC(COC(=O)c2cc3ccc(CN)nc3n2Cc2cc(NS(=O)(=O)Cc3ccccc3)cc3ccccc23)CC1 [Compound 15]                ≥ 7.00
2  CN(C)CCCCCOC(=O)c1cc2ccc(CN)nc2n1Cc1cc(NS(=O)(=O)Cc2ccccc2)cc2ccccc12 [Compound 34]                ≥ 7.00
3  NCc1ccc2cc(C(=O)OCC3CCOCC3)n(Cc3cc(NS(=O)(=O)Cc4ccsc4)cc4ccccc34)c2n1 [Compound 176]                ≥ 7.00
4  NCc1ccc2cc(C(=O)OCCC3CCOCC3)n(Cc3cc(NS(=O)(=O)Cc4ccsc4)cc4ccccc34)c2n1 [Compound 179]          6.30 to 7.00
5  CN1CCC[C@H](OC(=O)c2cc3ccc(CN)nc3n2Cc2cc(NS(=O)(=O)Cc3ccccc3)cc3ccccc23)C1 (racemic) [Compound 99]          6.30 to 7.00
6  NCc1ccc2cc(C(=O)OCCOCCN3CCCCC3)n(Cc3cc(NS(=O)(=O)Cc4ccccc4)cc4ccccc34)c2n1 [Compound 56]                ≥ 7.00

// lookup pKi for CCOC(=O)c1cc2ccc(CN)nc2n1Cc1cc(NS(=O)(=O)Cc2cccs2)cc2ccccc12 [Compound 154]
6.30 to 7.00

// lookup pKi for NCc1ccc2cc(C(=O)OCC3(CN)CC3)n(Cc3cc(NS(=O)(=O)Cc4ccccc4)cc4ccccc34)c2n1 [Compound 55]
≥ 7.00

// lookup pKi for CN1CCC(CCOC(=O)c2cc3ccc(CN)nc3n2Cc2cc(NS(=O)(=O)Cc3ccccc3)cc3ccccc23)CC1 [Compound 39]
≥ 7.00

* * *

# Assay system: Human Recombinant Matriptase 2 (Homo sapiens)
# Construct: made in house
# Sequence (Q8IU80 1-811): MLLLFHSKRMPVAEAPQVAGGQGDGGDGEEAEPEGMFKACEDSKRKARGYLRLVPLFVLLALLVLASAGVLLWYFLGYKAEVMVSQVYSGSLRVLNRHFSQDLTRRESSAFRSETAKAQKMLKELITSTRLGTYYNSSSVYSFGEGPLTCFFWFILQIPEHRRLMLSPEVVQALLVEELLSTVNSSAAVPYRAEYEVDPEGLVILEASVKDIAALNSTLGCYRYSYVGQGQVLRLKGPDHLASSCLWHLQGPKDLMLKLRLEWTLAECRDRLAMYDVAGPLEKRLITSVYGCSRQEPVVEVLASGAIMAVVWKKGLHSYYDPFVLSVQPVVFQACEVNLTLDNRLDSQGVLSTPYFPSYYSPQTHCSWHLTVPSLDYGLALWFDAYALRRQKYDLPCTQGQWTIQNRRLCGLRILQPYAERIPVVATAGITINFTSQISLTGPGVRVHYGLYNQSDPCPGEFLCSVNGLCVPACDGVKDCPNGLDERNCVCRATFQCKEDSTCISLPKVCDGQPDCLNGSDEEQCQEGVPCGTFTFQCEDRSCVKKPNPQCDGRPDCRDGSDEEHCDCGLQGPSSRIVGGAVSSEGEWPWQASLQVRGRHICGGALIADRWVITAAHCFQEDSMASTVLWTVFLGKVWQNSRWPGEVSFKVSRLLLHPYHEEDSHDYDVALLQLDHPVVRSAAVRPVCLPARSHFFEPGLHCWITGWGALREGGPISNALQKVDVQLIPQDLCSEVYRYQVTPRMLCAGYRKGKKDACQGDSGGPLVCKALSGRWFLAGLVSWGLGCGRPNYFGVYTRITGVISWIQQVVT
# Assay overview: Matriptase 2 inhibition, fluorescence based assay (Method I)
# Format: biochemical
# Experimental conditions: Table A; Ki of Matriptase-2 given as class symbols; read-out: Mat-2 Ki
Outcome measure: Ki

Worked cases, answers included:
> print(dat)
                                   compound                              assay.system  recorded.measurement
1  CN1CCCC(COC(=O)c2cc3ccc(CN)cc3n2Cc2cc(NS(=O)(=O)Cc3ccccc3)cc3ccccc23)C1 (racemic) [Compound 382]  Human Recombinant Matriptase 2 (Homo sapiens)              ≤ 0.1 µM
2  NCc1ccc2cc(C(=O)O)n(Cc3cc(NS(=O)(=O)Cc4ccccc4)cc4c3CCCC4)c2n1 [Compound 285]  Human Recombinant Matriptase 2 (Homo sapiens)         0.1 to 0.5 µM
3  NCc1ccc2cc(-c3cnn[nH]3)n(Cc3cc(NS(=O)(=O)Cc4ccccc4)cc4ccccc34)c2n1 [Compound 350]  Human Recombinant Matriptase 2 (Homo sapiens)         0.1 to 0.5 µM
4  NCc1ccc2cc(C(=O)O)n(Cc3cc(NS(=O)(=O)Cc4ccccc4)cc4ccccc34)c2c1 [Compound 370]  Human Recombinant Matriptase 2 (Homo sapiens)              ≤ 0.1 µM
5  NCc1ccc2cc(C(=O)O)n(Cc3cc(CS(=O)(=O)Cc4ccccc4)cc4ccccc34)c2n1 [Compound 252]  Human Recombinant Matriptase 2 (Homo sapiens)           0.5 to 3 µM

Now for a further compound.
// lookup Ki for CC(C)(C)S(=O)(=O)N1CCC(CNC(=O)Nc2cc(Cn3c(C(=O)O)cc4ccc(CN)cc43)c3ccccc3c2)CC1 [Compound 396]
0.1 to 0.5 µM

Recorded values, source patent US20240400553A1.
